Overview of reported binding signal across a group of sequences:
molecular target: ZNF721 DBD1 (Homo sapiens, UniProt Q8TF20-2 29-461); experiment: HT-SELEX; 20 mM HEPES pH 7, 140 mM KCl, 5 mM NaCl, 1 mM K2HPO4, 2 mM MgSO4, 100 uM EGTA, ZnSO4, 0.1% Tween20; room temperature, 1 h; high values mean tight binding; conditions: protein: ivt; tags: eGFP (N-terminal); dsDNA, one strand shown
Sequence (Q8TF20 17-449): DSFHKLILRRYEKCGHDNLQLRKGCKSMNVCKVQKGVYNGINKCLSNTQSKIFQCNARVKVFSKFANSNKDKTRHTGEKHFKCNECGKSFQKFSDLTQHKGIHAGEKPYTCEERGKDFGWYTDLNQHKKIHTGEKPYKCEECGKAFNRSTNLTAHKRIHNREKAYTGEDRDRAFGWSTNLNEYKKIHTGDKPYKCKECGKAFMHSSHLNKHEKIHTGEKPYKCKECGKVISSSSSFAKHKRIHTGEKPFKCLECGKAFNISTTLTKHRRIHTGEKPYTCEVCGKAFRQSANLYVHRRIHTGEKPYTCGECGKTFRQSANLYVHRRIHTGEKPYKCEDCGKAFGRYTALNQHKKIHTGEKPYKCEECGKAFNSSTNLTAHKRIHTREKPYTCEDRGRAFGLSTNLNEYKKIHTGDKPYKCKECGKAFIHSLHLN
Field: numeric (relative 10-mer count). Do not append units.

In the examples that follow, each entry is paired with its recorded binding signal.
{"sequence": "AAAAAAAGAA", "quantitative_result": 0.00867}
{"sequence": "AAAGCGTACC", "quantitative_result": 0.0281}
{"sequence": "CCCCTCCCTC", "quantitative_result": 0.00789}
{"sequence": "ACCTCCCACC", "quantitative_result": 0.00578}
{"sequence": "CCCCGCCTCC", "quantitative_result": 0.00738}

-- ask // returns reported binding signal for input `AAAAGCTGCA`
-- reply 0.0533

-- ask // returns reported binding signal for input `CCCCGCACCC`
-- reply 0.00812

-- ask // returns reported binding signal for input `AGGGTTTCCA`
-- reply 0.00128

====

biological target: ZNF721 DBD1 (Homo sapiens, UniProt Q8TF20-2 29-461); experiment: HT-SELEX; 20 mM HEPES pH 7, 140 mM KCl, 5 mM NaCl, 1 mM K2HPO4, 2 mM MgSO4, 100 uM EGTA, ZnSO4, 0.1% Tween20; room temperature, 1 h; high values mean tight binding; conditions: protein: ivt; tags: eGFP (N-terminal); dsDNA, one strand shown
metric_name: binding signal
Answer shape: numeric part, then the unit.

In the examples that follow, each entry is paired with its recorded binding signal.
{"sequence": "CCAACCCCAC", "binding signal": "0.00482 relative 10-mer count"}
{"sequence": "CGCCACCCCC", "binding signal": "0.00706 relative 10-mer count"}

-- ask // returns reported binding signal for input `CACCGCCCCC`
-- reply 0.00803 relative 10-mer count

-- ask // returns reported binding signal for input `CCGCCACCCC`
-- reply 0.0102 relative 10-mer count

-- ask // returns reported binding signal for input `CACCCCGCCA`
-- reply 0.00404 relative 10-mer count

====

target: ZNF721 DBD2 (Homo sapiens, UniProt Q8TF20-2 395-923); assay: HT-SELEX; 20 mM HEPES pH 7, 140 mM KCl, 5 mM NaCl, 1 mM K2HPO4, 2 mM MgSO4, 100 uM EGTA, ZnSO4, 0.1% Tween20; room temperature, 1 h; high values mean tight binding; conditions: protein: ivt; tags: eGFP (N-terminal); dsDNA, one strand shown
Sequence (Q8TF20 383-911): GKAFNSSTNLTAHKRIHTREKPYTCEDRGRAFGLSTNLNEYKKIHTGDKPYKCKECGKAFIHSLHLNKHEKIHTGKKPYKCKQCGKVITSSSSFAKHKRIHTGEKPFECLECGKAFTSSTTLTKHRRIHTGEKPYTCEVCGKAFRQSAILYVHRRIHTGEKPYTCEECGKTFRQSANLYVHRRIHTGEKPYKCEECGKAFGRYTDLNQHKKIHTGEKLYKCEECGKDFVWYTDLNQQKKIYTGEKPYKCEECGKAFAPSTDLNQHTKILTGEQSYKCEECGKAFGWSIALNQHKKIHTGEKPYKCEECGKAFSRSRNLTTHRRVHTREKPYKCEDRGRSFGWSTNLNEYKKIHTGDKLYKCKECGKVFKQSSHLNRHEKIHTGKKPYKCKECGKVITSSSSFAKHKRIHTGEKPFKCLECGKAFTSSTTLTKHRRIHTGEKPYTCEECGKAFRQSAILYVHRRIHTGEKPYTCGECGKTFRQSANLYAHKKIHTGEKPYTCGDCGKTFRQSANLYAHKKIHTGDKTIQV
Kindly return T if reported binding signal is no lower than 0.004 relative 10-mer count; return F if it is lower.

Before answering, review these 3 worked examples.
{"sequence": "AAAGCTGCAC", "qualitative_label": "F"}
{"sequence": "AAAAACAGTA", "qualitative_label": "T"}
{"sequence": "ACCCCACCCT", "qualitative_label": "F"}

-- ask Determine whether measured binding signal meets or exceeds 0.004 relative 10-mer count for `AAACAGGATA`
-- reply T

-- ask Determine whether measured binding signal meets or exceeds 0.004 relative 10-mer count for `CCGAAAAAAA`
-- reply T

====

Overview of reported binding signal across a group of sequences:
target: ZNF721 full-length (Homo sapiens, UniProt Q8TF20-2 1-923); experiment: HT-SELEX; 20 mM HEPES pH 7, 140 mM KCl, 5 mM NaCl, 1 mM K2HPO4, 2 mM MgSO4, 100 uM EGTA, ZnSO4, 0.1% Tween20; room temperature, 1 h; high values mean tight binding; settings: protein: ivt; tags: eGFP (N-terminal); dsDNA, one strand shown
Sequence (Q8TF20 other isoform, or with tags, fused parts or gaps): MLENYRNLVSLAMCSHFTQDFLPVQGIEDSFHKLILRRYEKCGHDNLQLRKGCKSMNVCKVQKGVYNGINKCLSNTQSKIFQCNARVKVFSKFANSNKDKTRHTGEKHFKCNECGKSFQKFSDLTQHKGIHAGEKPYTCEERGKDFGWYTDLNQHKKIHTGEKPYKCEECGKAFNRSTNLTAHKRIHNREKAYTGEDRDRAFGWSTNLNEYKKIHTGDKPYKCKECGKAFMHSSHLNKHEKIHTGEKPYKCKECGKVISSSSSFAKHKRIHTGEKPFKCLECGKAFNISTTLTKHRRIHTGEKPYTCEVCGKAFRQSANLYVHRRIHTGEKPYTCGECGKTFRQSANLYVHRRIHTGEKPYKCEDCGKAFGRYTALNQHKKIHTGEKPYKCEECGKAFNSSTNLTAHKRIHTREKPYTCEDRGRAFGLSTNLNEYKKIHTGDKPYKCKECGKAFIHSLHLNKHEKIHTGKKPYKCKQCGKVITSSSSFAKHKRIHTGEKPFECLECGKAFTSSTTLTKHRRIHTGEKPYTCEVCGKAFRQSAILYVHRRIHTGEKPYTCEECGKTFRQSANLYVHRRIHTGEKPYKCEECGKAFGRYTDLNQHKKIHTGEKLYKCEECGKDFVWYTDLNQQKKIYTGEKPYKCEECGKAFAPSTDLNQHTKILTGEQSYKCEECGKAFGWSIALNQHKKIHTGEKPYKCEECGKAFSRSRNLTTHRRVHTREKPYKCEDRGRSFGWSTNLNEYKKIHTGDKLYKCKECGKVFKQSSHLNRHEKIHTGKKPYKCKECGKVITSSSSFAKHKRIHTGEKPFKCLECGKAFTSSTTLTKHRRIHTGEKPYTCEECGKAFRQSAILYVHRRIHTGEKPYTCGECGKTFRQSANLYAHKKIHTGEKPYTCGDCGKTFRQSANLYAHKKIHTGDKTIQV
Field: numeric (relative 10-mer count). Do not append units.

In the examples that follow, each entry is paired with its recorded binding signal.
{"sequence": "CGAAAAAAAA", "unit_name": "relative 10-mer count", "binding signal": 0.137}
{"sequence": "AAACAGGGGT", "unit_name": "relative 10-mer count", "binding signal": 0.106}
{"sequence": "GAAACGCTGC", "unit_name": "relative 10-mer count", "binding signal": 0.102}
{"sequence": "AAACGCTGTT", "unit_name": "relative 10-mer count", "binding signal": 0.236}
{"sequence": "AGGTGGGTGG", "unit_name": "relative 10-mer count", "binding signal": 0.149}

-- ask // returns reported binding signal for input `CCACCCCATC`
-- reply 0.11

-- ask // returns reported binding signal for input `GCCACCACCC`
-- reply 0.106

-- ask // returns reported binding signal for input `AACAAAGCAG`
-- reply 0.243

====

Overview of reported log10 of binding signal across a group of sequences:
molecular target: ZNF721 DBD1 (Homo sapiens, UniProt Q8TF20-2 29-461); assay: HT-SELEX; 20 mM HEPES pH 7, 140 mM KCl, 5 mM NaCl, 1 mM K2HPO4, 2 mM MgSO4, 100 uM EGTA, ZnSO4, 0.1% Tween20; room temperature, 1 h; high values mean tight binding; settings: protein: ivt; tags: eGFP (N-terminal); dsDNA, one strand shown
// do not treat as linear: log10 of binding signal, unit relative 10-mer count

In the examples that follow, each entry is paired with its recorded log10 of binding signal.
{"sequence": "ATGTGTATGA", "target_system": "ZNF721 DBD1 (Homo sapiens, UniProt Q8TF20-2 29-461)", "quantitative_result": -0.91}
{"sequence": "CCCACCCATC", "target_system": "ZNF721 DBD1 (Homo sapiens, UniProt Q8TF20-2 29-461)", "quantitative_result": -2.29}
{"sequence": "AAGCGTACCC", "target_system": "ZNF721 DBD1 (Homo sapiens, UniProt Q8TF20-2 29-461)", "quantitative_result": -0.98}
{"sequence": "ACTTCATACT", "target_system": "ZNF721 DBD1 (Homo sapiens, UniProt Q8TF20-2 29-461)", "quantitative_result": -0.57}
{"sequence": "CACCCCCACA", "target_system": "ZNF721 DBD1 (Homo sapiens, UniProt Q8TF20-2 29-461)", "quantitative_result": -2.32}

-- ask // returns reported log10 of binding signal for input `AGGGGGGGTG`
-- reply -2.37

-- ask // returns reported log10 of binding signal for input `AGTGTTTCCA`
-- reply -1.95

-- ask // returns reported log10 of binding signal for input `CCCAAAAAAA`
-- reply -2.17

-- ask // returns reported log10 of binding signal for input `CCGTCCCCCC`
-- reply -2.16

====

Overview of reported binding signal across a group of sequences:
target: ZNF721 DBD2 (Homo sapiens, UniProt Q8TF20-2 395-923); assay: HT-SELEX; 20 mM HEPES pH 7, 140 mM KCl, 5 mM NaCl, 1 mM K2HPO4, 2 mM MgSO4, 100 uM EGTA, ZnSO4, 0.1% Tween20; room temperature, 1 h; high values mean tight binding; details: protein: ivt; tags: eGFP (N-terminal); dsDNA, one strand shown
Field: numeric (relative 10-mer count). Do not append units.

In the examples that follow, each entry is paired with its recorded binding signal.
{"sequence": "ACAGGGTATC", "unit_name": "relative 10-mer count", "binding signal": 0.2}
{"sequence": "GCCCCCCACC", "unit_name": "relative 10-mer count", "binding signal": 0.00455}
{"sequence": "CCAACCACCC", "unit_name": "relative 10-mer count", "binding signal": 0.00312}

-- ask // returns reported binding signal for input `CCCCTCGCCC`
-- reply 0.00372

-- ask // returns reported binding signal for input `CCCCCAACCA`
-- reply 0.00503

-- ask // returns reported binding signal for input `AAAGCGTACC`
-- reply 0.0144

-- ask // returns reported binding signal for input `AAAGGCATAC`
-- reply 0.123

-- ask // returns reported binding signal for input `AAAAGCAGTG`
-- reply 0.397

-- ask // returns reported binding signal for input `CAGAGTACCC`
-- reply 0.18

-- ask // returns reported binding signal for input `CCCTACCCCA`
-- reply 0.00395

====

molecular target: ZNF721 DBD1 (Homo sapiens, UniProt Q8TF20-2 29-461); assay: HT-SELEX; 20 mM HEPES pH 7, 140 mM KCl, 5 mM NaCl, 1 mM K2HPO4, 2 mM MgSO4, 100 uM EGTA, ZnSO4, 0.1% Tween20; room temperature, 1 h; high values mean tight binding; conditions: protein: ivt; tags: eGFP (N-terminal); dsDNA, one strand shown
Kindly return yes if reported binding signal is no lower than 0.007 relative 10-mer count; return no if it is lower.

{"sequence": "CCCCTCGCCC", "qualitative_label": "no"}
{"sequence": "CTTCATACCA", "qualitative_label": "yes"}
{"sequence": "CGTCCCCCCC", "qualitative_label": "no"}
{"sequence": "AAAAAAGAAG", "qualitative_label": "yes"}
{"sequence": "ACCCCCCTCC", "qualitative_label": "no"}

-- ask Determine whether measured binding signal meets or exceeds 0.007 relative 10-mer count for `CAAAAAAAAA`
-- reply yes

-- ask Determine whether measured binding signal meets or exceeds 0.007 relative 10-mer count for `AACAAAAAAG`
-- reply yes

-- ask Determine whether measured binding signal meets or exceeds 0.007 relative 10-mer count for `ACACCCCACC`
-- reply no

-- ask Determine whether measured binding signal meets or exceeds 0.007 relative 10-mer count for `CCGCACCCCC`
-- reply no

-- ask Determine whether measured binding signal meets or exceeds 0.007 relative 10-mer count for `CCGACCCCCC`
-- reply no

-- ask Determine whether measured binding signal meets or exceeds 0.007 relative 10-mer count for `CCCCACCCGC`
-- reply no

-- ask Determine whether measured binding signal meets or exceeds 0.007 relative 10-mer count for `ACCCCGACCC`
-- reply no

-- ask Determine whether measured binding signal meets or exceeds 0.007 relative 10-mer count for `CTCCCCCACC`
-- reply yes

-- ask Determine whether measured binding signal meets or exceeds 0.007 relative 10-mer count for `CCACCACACC`
-- reply no

-- ask Determine whether measured binding signal meets or exceeds 0.007 relative 10-mer count for `CCTACCACCC`
-- reply no

-- ask Determine whether measured binding signal meets or exceeds 0.007 relative 10-mer count for `AAAGCAGCAC`
-- reply no

-- ask Determine whether measured binding signal meets or exceeds 0.007 relative 10-mer count for `AGCATACCCC`
-- reply yes

-- ask Determine whether measured binding signal meets or exceeds 0.007 relative 10-mer count for `ACACTTCATA`
-- reply yes
